- target desc: T1, mouse latent myostatin (mouse, UniProt O08689 26-267; O08689 268-376)
- T1 sequence 1: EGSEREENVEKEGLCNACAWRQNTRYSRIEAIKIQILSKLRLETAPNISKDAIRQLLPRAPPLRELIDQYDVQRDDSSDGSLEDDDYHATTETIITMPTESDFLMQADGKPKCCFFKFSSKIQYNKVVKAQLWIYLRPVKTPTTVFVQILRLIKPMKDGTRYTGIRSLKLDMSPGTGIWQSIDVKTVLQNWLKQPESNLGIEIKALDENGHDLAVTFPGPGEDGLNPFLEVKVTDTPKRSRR
- T1 sequence 2: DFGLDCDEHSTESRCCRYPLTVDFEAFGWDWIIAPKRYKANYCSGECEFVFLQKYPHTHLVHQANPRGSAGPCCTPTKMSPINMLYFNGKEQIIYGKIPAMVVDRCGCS
- assay remarks: SPR 37C pH5.8; pH 5.8
Attribute: pKd
# pKd is unitless: minus log10 of the molar concentration; print number only

Sample records with pKd:
| binder | assay value |
| --- | --- |
| MS_M103205H1046-SG1/M103202L889-SK1 (antibody, human IgG1, kappa, V domains shown, also called MS1032LO10-SG1) VH: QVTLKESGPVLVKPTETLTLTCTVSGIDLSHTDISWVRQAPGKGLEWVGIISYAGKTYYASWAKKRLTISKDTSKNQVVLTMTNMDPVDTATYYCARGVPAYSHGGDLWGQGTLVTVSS VL: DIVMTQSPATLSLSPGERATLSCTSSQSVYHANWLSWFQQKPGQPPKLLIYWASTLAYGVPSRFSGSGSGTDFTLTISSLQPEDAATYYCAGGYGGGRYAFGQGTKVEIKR | 7.96 |
| MS_M103205H795-SG1/M103202L1060-SK1 (antibody, human IgG1, kappa, V domains shown, also called MS1032LO24-SG1) VH: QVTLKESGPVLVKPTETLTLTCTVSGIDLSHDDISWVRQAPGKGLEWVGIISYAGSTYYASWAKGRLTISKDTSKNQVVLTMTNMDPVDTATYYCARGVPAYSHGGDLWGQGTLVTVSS VL: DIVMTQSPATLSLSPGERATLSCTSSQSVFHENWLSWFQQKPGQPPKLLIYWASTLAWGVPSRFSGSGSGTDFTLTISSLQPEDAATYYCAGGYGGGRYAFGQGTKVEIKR | 8.99 |
| MS_M103205H1047-SG1/M103202L889-SK1 (antibody, human IgG1, kappa, V domains shown, also called MS1032LO11-SG1) VH: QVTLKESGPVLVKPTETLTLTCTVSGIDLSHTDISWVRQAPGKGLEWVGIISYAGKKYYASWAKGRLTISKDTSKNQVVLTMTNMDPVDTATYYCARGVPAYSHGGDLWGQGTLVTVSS VL: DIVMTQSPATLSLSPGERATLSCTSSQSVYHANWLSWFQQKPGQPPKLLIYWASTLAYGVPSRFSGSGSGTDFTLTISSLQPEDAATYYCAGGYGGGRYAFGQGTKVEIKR | 7.53 |

Turning to the following binder.
Entry MS_M103205H1004-SG1/M103202L889-SK1 (antibody, human IgG1, kappa, V domains shown, also called MS1032LO07-SG1) VH: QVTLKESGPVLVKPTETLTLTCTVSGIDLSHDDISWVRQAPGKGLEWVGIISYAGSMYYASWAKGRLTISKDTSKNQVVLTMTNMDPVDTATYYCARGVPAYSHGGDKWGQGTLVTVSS VL: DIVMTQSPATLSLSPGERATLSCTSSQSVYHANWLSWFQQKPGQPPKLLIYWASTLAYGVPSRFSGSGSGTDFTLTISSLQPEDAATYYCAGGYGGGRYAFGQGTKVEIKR ; pKd = 7.51
